These data points were gathered from patent US20240067632A1.

target: WEE1 (Homo sapiens, UniProt P30291+Q96SW2); construct: C-terminal ePL-tagged (DiscoverX, Fremont, CA) full-length WEE1 expression construct; expressed in transfected cells; host or cells: LentiX-HEK293T (Invitrogen), lentiviral transduction; co-expressing GSPT1-GN (G576N, lacking the first 158 amino acids); test: WEE1-ePL degradation assay (LentiX-WEE1-ePL-GSPT1-ND cells, InCELL Hunter luminescence, 4 h); type: cell-based; conditions: 293T-LentiX WEE1-ePL cells, read-out: 293T-LentiX WEE1-ePL Degradation 4 hr (EC50)
Entries annotated with measured log10 DC50
Scale type: logarithmic (base 10). Underlying DC50 unit: nM.

compound	log10 DC50
C[C@H]1CC(c2ccc3cc(CN4CC[C@H](Oc5ccc6c(c5)CN(C5CCC(=O)NC5=O)C6=O)C4)ccc3n2)CCO1 (stereo partly drawn)	0.47
C[C@@H]1CN(Cc2cc(F)c3nc(C4CCOCC4)ccc3c2)C[C@H]1Oc1ccc2c(c1)CN([C@H]1CCC(=O)NC1=O)C2=O	0.02
CN1C(=O)COc2ccc(CN3CC[C@H](Oc4ccc5c(c4)CN(C4CCC(=O)NC4=O)C5=O)C3)cc21 (stereo partly drawn)	1.68
O=C1CCC(N2Cc3cc(O[C@H]4CCN(Cc5ccc6nc(N7CC[C@@H](O)C7)ccc6c5)C4)ccc3C2=O)C(=O)N1 (stereo partly drawn)	1.24
O=C1CCC(N2Cc3cc(O[C@H]4CCN(Cc5ccc(-c6ccccc6)cn5)C4)ccc3C2=O)C(=O)N1 (stereo partly drawn)	0.88

Simply: C[C@@H]1CN(Cc2ccc3nc([C@H]4CCOC(C)(C)C4)ccc3c2)C[C@H]1Oc1ccc2c(c1)CN(C1CCC(=O)NC1=O)C2=O (stereo partly drawn) , WEE1 (Homo sapiens, UniProt P30291+Q96SW2), log10 DC50 = 0.29

Short answer on WEE1 (Homo sapiens, UniProt P30291+Q96SW2) for O=C1CCC(N2Cc3cc(O[C@H]4CCN(Cc5ccc6nc([C@@H]7CC[C@@H](O)C7)ccc6c5)C4)ccc3C2=O)C(=O)N1 (stereo partly drawn) , log10 DC50: 0.41

Measured log10 DC50 for this entry CN1CC(=O)Oc2cc(CN3CC[C@H](Oc4ccc5c(c4)CN(C4CCC(=O)NC4=O)C5=O)C3)ccc21 (stereo partly drawn) on WEE1 (Homo sapiens, UniProt P30291+Q96SW2): 1.38

The observed log10 DC50 for CO[C@H]1CCC[C@@H]1c1ccc2cc(CN3CC[C@H](Oc4ccc5c(c4)CN(C4CCC(=O)NC4=O)C5=O)C3)ccc2n1 (stereo partly drawn) when tested with WEE1 (Homo sapiens, UniProt P30291+Q96SW2) stands at 0.64

Short answer on WEE1 (Homo sapiens, UniProt P30291+Q96SW2) for O=C1CC[C@H](N2Cc3cc(O[C@H]4CCN(Cc5cc(F)c6nc(C7CCOCC7)ncc6c5)C4)ccc3C2=O)C(=O)N1 , log10 DC50: 1.44

----------
biological target: WEE1 (Homo sapiens, UniProt P30291+Q96SW2); construct: C-terminal ePL-tagged (DiscoverX, Fremont, CA) full-length WEE1 expression construct; expressed in transfected cells; host or cells: LentiX-HEK293T (Invitrogen), lentiviral transduction; co-expressing GSPT1-GN (G576N, lacking the first 158 amino acids); experiment: WEE1-ePL degradation assay (LentiX-WEE1-ePL-GSPT1-ND cells, InCELL Hunter luminescence, 4 h); type: cell-based; conditions: 293T-LentiX WEE1-ePL cells, read-out: 293T-LentiX WEE1-ePL Degradation 4 hr (EC50)
Each entry falls into one class according to its DC50; the ranges are b0 (below 3 nM), b1 (3 nM to below 6 nM), b2 (6 nM or more)

// below: answered compounds
compound	class-assignment
O=C1CCC(N2Cc3cc(O[C@H]4CCN(Cc5cccc6nccnc56)C4)ccc3C2=O)C(=O)N1 (stereo partly drawn)	b2
O=C1CCC(N2Cc3cc(O[C@H]4CCN(Cc5ccnc(-c6ccccc6)c5)C4)ccc3C2=O)C(=O)N1 (stereo partly drawn)	b2
CN1CC(c2ccc3cc(CN4CC[C@H](Oc5ccc6c(c5)CN(C5CCC(=O)NC5=O)C6=O)C4)ccc3n2)C1 (stereo partly drawn)	b2
CC1(C)CN(c2ccc3cc(CN4CC[C@H](Oc5ccc6c(c5)CN(C5CCC(=O)NC5=O)C6=O)C4)ccc3n2)CCO1 (stereo partly drawn)	b0
O=C1CCC(N2Cc3cc(O[C@H]4CCN(Cc5ccc6ncc(C7COC7)cc6c5)C4)ccc3C2=O)C(=O)N1 (stereo partly drawn)	b1
CC(=O)N1CCC(c2ncc3cc(CN4CC[C@H](Oc5ccc6c(c5)CN([C@H]5CCC(=O)NC5=O)C6=O)C4)ccc3n2)CC1	b2
COCc1ccc2cc(CN3CC[C@H](Oc4ccc5c(c4)CN(C4CCC(=O)NC4=O)C5=O)C3)ccc2n1 (stereo partly drawn)	b1
O=C1CCC(N2Cc3cc(O[C@H]4CCN(Cc5ccc6nc(N7C[C@@H]8C9CCC(O9)[C@@H]8C7)ccc6c5)C4)ccc3C2=O)C(=O)N1 (stereo partly drawn)	b1

Data request: Which of the defined bands does the recorded DC50 of CC1(C)COCC[C@H]1c1ccc2cc(CN3CC[C@H](Oc4ccc5c(c4)CN(C4CCC(=O)NC4=O)C5=O)C3)ccc2n1 (stereo partly drawn) sit within?
Data returned: b1

Data request: Lab note: which band did COC[C@H]1CC[C@@H](c2ccc3cc(CN4CC[C@H](Oc5ccc6c(c5)CN(C5CCC(=O)NC5=O)C6=O)C4)ccc3n2)C1 (stereo partly drawn) land in?
Data returned: b1

Data request: Lab note: sort O=C1CCC(N2Cc3cc(O[C@H]4CCN(Cc5cnc6c(c5)CCCO6)C4)ccc3C2=O)C(=O)N1 (stereo partly drawn) into the matching DC50 band.
Data returned: b2

Data request: Would you mind sorting Cc1nccc(CN2CC[C@H](Oc3ccc4c(c3)CN(C3CCC(=O)NC3=O)C4=O)C2)c1C (stereo partly drawn) into the appropriate category?
Data returned: b2

Data request: Exercise: read the entry O=C1CC[C@H](N2Cc3cc(O[C@H]4CCN(Cc5ccc6nc([C@@H]7CCOC7)ncc6c5)C4)ccc3C2=O)C(=O)N1 and state which class it falls under.
Data returned: b2

Data request: Sort into band: O=C1CCC(N2Cc3cc(O[C@H]4CCN(Cc5ccc6nc(N7CCCC7=O)ccc6c5)C4)ccc3C2=O)C(=O)N1 (stereo partly drawn)
Data returned: b0

Data request: Which bin, given its DC50, does O=C1CCC(N2Cc3cc(O[C@H]4CCN(Cc5nccc6c5CCCO6)C4)ccc3C2=O)C(=O)N1 (stereo partly drawn) occupy?
Data returned: b2

Data request: // bin(item) where item = O=C1CC[C@H](N2Cc3cc(O[C@H]4CCN(Cc5cc(F)c6nc([C@H]7CCOC7)ccc6c5)C4)ccc3C2=O)C(=O)N1
Data returned: b0

Data request: Lab log: O=C1CCC(N2Cc3cc(O[C@H]4CCN(Cc5ccc6nc(N7C[C@H]8CCO[C@H]8C7)ccc6c5)C4)ccc3C2=O)C(=O)N1 (stereo partly drawn) — assign DC50 category
Data returned: b1

Data request: Hey, which category is O=C1CCC(N2Cc3cc(O[C@H]4CCN(Cc5ccc6nc(COC7CCOCC7)ccc6c5)C4)ccc3C2=O)C(=O)N1 (stereo partly drawn) in, do you know?
Data returned: b1

Data request: Into which category would you place O=C1CCC(N2Cc3cc(O[C@H]4CCN(Cc5ccc6nc(N7CCCC7)ccc6c5)C4)ccc3C2=O)C(=O)N1 (stereo partly drawn) ?
Data returned: b1

Data request: Returns: class label. Input: O=C1CCC(N2Cc3cc(O[C@H]4CCN(Cc5ccc6nc(C(F)(F)F)ccc6c5)C4)ccc3C2=O)C(=O)N1 (stereo partly drawn)
Data returned: b1

Data request: # bin lookup: classify O=C1CCC(N2Cc3cc(O[C@H]4CCN(Cc5ccc6ncccc6c5)C4)ccc3C2=O)C(=O)N1 (stereo partly drawn) by its DC50
Data returned: b1

----------
# Lookup of reported 293T-LentiX WEE1-ePL Degradation 4 hr (Ymin) keyed by entry
Target: WEE1 (Homo sapiens, UniProt P30291+Q96SW2)
Construct: C-terminal ePL-tagged (DiscoverX, Fremont, CA) full-length WEE1 expression construct; expressed in transfected cells; host or cells: LentiX-HEK293T (Invitrogen), lentiviral transduction; co-expressing GSPT1-GN (G576N, lacking the first 158 amino acids)
Test: WEE1-ePL degradation assay (LentiX-WEE1-ePL-GSPT1-ND cells, InCELL Hunter luminescence, 4 h)
Type: cell-based
Settings: 293T-LentiX WEE1-ePL cells, lower limit of the fit (0 = luciferase inhibitor, Ymax = DMSO control)
Method: To generate LentiX-WEE1-ePL-GSPT1-ND cells for the WEE1 degradation assay, LentiX-HEK293T (Invitrogen) were transduced by lentivirus with a C-terminal ePL-tagged (DiscoverX, Fremont, CA) full-length WEE1 expression construct. […] Cells were selected and maintained in complete DMEM media (DMEM, 10% Heat Inactivated FBS, 400 μg/mL Geneticin, and 1 μg/mL puromycin at 37 C and 5% CO2). Cells were passaged every 3-4 days by reseeding 1×10^6 cells in a T150 flask. […]
Write the value as a bare number.

The cases that follow already have their 293T-LentiX WEE1-ePL Degradation 4 hr (Ymin) on record.
compound	target-of-assay	result
O=C1CCC(N2Cc3cc(O[C@H]4CCN(Cc5cnc6c(c5)CCO6)C4)ccc3C2=O)C(=O)N1 (stereo partly shown)	WEE1 (Homo sapiens, UniProt P30291+Q96SW2)	42
O=C1CCC(N2Cc3cc(O[C@H]4CCN(Cc5ccc6nc(N7C[C@@H]8C[C@H]7CO8)ccc6c5)C4)ccc3C2=O)C(=O)N1 (stereo partly shown)	WEE1 (Homo sapiens, UniProt P30291+Q96SW2)	34
O=C1CCC(N2Cc3cc(O[C@H]4CCN(Cc5ccc6nc(N7C[C@@H]8C9CCC(O9)[C@@H]8C7)ccc6c5)C4)ccc3C2=O)C(=O)N1 (stereo partly shown)	WEE1 (Homo sapiens, UniProt P30291+Q96SW2)	38

The compound listed as O=C1CCC(N2Cc3cc(O[C@H]4CCN(Cc5cc6ccc(C(F)(F)F)cc6cn5)C4)ccc3C2=O)C(=O)N1 (stereo partly shown) shows 293T-LentiX WEE1-ePL Degradation 4 hr (Ymin) equal to 31

So for O=C1CCC(N2Cc3cc(O[C@H]4CCN(Cc5ccc6nc(C7COC7)ncc6c5)C4)ccc3C2=O)C(=O)N1 (stereo partly shown) , the logged 293T-LentiX WEE1-ePL Degradation 4 hr (Ymin) turned out to be 30

Sample O=C1CCC(N2Cc3cc(O[C@H]4CCN(Cc5ccc6nc(N7CCC[C@]78CCOC8)ncc6c5)C4)ccc3C2=O)C(=O)N1 (stereo partly shown) ; 293T-LentiX WEE1-ePL Degradation 4 hr (Ymin) observed: 32.5

293T-LentiX WEE1-ePL Degradation 4 hr (Ymin) for Cc1ccc2cc(CN3CC[C@H](Oc4ccc5c(c4)CN(C4CCC(=O)NC4=O)C5=O)C3)cc(C)c2n1 (stereo partly shown) is 29.33
